// values below are reported pEC50
System: Control peptide
protocolText: Antibody specificity by ELISA
testContext: ELISA binding, irrelevant peptide
pEC50: −log10 of the molar value.

molecule	pEC50
H1H1912N: human IgG1 Fc anti-EGFRvIII antibody with variable domains 1912; HCVR/LCVR SEQ ID NOs 66/74 (antibody, V domains shown, human IgG1 Fc) VH: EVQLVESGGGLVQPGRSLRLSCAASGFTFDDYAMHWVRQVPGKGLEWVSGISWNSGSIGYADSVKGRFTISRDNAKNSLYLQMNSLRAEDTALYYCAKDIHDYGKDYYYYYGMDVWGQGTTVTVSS VL: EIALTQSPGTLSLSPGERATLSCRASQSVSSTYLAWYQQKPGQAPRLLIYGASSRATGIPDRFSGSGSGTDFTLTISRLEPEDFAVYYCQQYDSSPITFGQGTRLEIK	< 8.00

Query molecule follows.
-- ask GET /values?readout=pEC50&item= H1H2195P: human IgG1 Fc anti-EGFRvIII antibody; HCVR/LCVR SEQ ID NOs 18/26 (antibody, V domains shown, human IgG1 Fc) VH: QVQLVESGGGVVQPGRSRRLSCVGSGFIFSSYGMHWVRQAPGKGLEWVALIFYDGSNEYYVDSVKGRFTISRDNSKNTLYLQMNSLRAEDTAVYYCAREGYSQRYKYYFGMDVWGQGTTVTVSS VL: DIQMTQSPSSVSASVGDRVTITCRASQGISSWLAWYQQQPGKAPKLLIYAASSLQSGVPSRFSGSGSGTDFTLTISSLQPEDFATYYCQQTNSFPLTFGGGTKVEIKR
-- reply < 8.00
